# METHOD: Drug uptake in C57BL6 mouse brain at 10 mg/kg, ip after 2 hrs
# Type: ADME, organism-based
# Parameters: dose 10 mg/kg, route intraperitoneal
# SETTINGS: read-out: Drug uptake
concentration at 2 h reference
Only the number, expressed in nM, is required.

MOLECULE_SMILES: CN1CCN(CCNC(=O)c2cccc(-n3ncc4cc(Nc5c(Cl)cccc5Cl)ccc43)c2)CC1
MEASUREMENT_LABEL: concentration at 2 h
QUANTITY_UNIT: nM
RECORDED_VALUE: 810
--
MOLECULE_SMILES: O=C(NCCN1CCOCC1)c1ccnc(-n2ncc3cc(Nc4ccccc4Cl)ccc32)c1
MEASUREMENT_LABEL: concentration at 2 h
QUANTITY_UNIT: nM
RECORDED_VALUE: 1400
--
MOLECULE_SMILES: O=C(NCCCN1CCOCC1)c1ccc(-n2ncc3cc(Nc4ccccc4Cl)ccc32)cc1
MEASUREMENT_LABEL: concentration at 2 h
QUANTITY_UNIT: nM
RECORDED_VALUE: 690
--
MOLECULE_SMILES: Cc1cccc(Nc2ccc3c(cnn3-c3cccc(C(=O)NCCN4CCN(C5CCC5)CC4)c3)c2)c1Cl
MEASUREMENT_LABEL: concentration at 2 h
QUANTITY_UNIT: nM
RECORDED_VALUE: 3900

Query: Consider the compound O=C(NCCCN1CCOCC1)c1cccc(-n2ncc3cc(Nc4ccccc4Cl)ccc32)c1 and give its recorded concentration at 2 h.
Response: 570

====

# Species: Homo sapiens
# METHOD: Selectivity ratio of IC50 for JNK1 (unknown origin) to IC50 for JNK3 (unknown origin)
MEASUREMENT_LABEL: Ratio IC50
I'd appreciate a reply containing only the number, no unit.

MOLECULE_SMILES: O=C(NCCCN1CCOCC1)c1cccc(-n2ncc3cc(Nc4ccccc4F)ccc32)c1
Ratio IC50: 5

MOLECULE_SMILES: COc1cc(NC(=O)c2cccc(-n3ncc4cc(Nc5ccccc5Cl)ccc43)c2)cc(OC)c1OC
Ratio IC50: 5

MOLECULE_SMILES: O=C(NCCO)c1cccc(-n2ncc3cc(Nc4ccccc4Cl)ccc32)c1
Ratio IC50: 5

MOLECULE_SMILES: Cc1cc(NC(=O)c2cccc(-n3ncc4cc(Nc5ccccc5F)ccc43)c2)ccc1N1CCOCC1
Ratio IC50: 5

MOLECULE_SMILES: COc1cc(NC(=O)c2cccc(-n3ncc4cc(Nc5ccccc5)ccc43)c2)cc(OC)c1OC
Ratio IC50: 10

MOLECULE_SMILES: O=C(NCCN1CCOCC1)c1cccc(-n2ncc3cc(Nc4ccccc4)cnc32)c1
Ratio IC50: 10

MOLECULE_SMILES: O=C(NCCN1CCOCC1)c1cccc(-n2ncc3cc(Nc4ccccn4)ccc32)c1
Ratio IC50: 5

MOLECULE_SMILES: CN1CCN(CCNC(=O)c2cccc(-n3ncc4cc(Nc5c(Cl)cccc5Cl)ccc43)c2)CC1
Ratio IC50: 5

MOLECULE_SMILES: COc1ccccc1Nc1ccc2c(cnn2-c2cccc(C(=O)NCCCN3CCOCC3)c2)c1
Ratio IC50: 5

MOLECULE_SMILES: O=C(NCCN1CCOCC1)c1cccc(-n2ncc3cc(Nc4ccccc4Cl)ncc32)c1
Ratio IC50: 10

Query: Consider the molecule NC(=O)c1cccc(-n2ncc3cc(Nc4ccccc4F)ccc32)c1 and give its recorded Ratio IC50.
Response: 5

Query: Consider the molecule Cc1cccc(NC(=O)c2cccc(-n3ncc4cc(Nc5ccccc5C)ccc43)c2)c1 and give its recorded Ratio IC50.
Response: 5

Query: Consider the molecule O=C(NCCN1CCOCC1)c1ccnc(-n2ncc3cc(Nc4ccccc4Cl)ccc32)c1 and give its recorded Ratio IC50.
Response: 10

Query: Consider the molecule O=C(NCCN1CCOCC1)c1cccc(-n2ncc3cc(Nc4c(Cl)cccc4Cl)ccc32)c1 and give its recorded Ratio IC50.
Response: 5

Query: Consider the molecule Cc1cc(NC(=O)c2cccc(-n3ncc4cc(Nc5ccccc5Cl)ccc43)c2)ccc1N1CCOCC1 and give its recorded Ratio IC50.
Response: 5

Query: Consider the molecule O=C(NCCN1CCOCC1)c1cccc(-n2ncc3cc(Nc4ccccc4Cl)ccc32)c1 and give its recorded Ratio IC50.
Response: 5

====

# TESTED_ON: Mitogen-activated protein kinase 10 (Rattus norvegicus, UniProt P49187)
# Sequence (P49187 whole entry): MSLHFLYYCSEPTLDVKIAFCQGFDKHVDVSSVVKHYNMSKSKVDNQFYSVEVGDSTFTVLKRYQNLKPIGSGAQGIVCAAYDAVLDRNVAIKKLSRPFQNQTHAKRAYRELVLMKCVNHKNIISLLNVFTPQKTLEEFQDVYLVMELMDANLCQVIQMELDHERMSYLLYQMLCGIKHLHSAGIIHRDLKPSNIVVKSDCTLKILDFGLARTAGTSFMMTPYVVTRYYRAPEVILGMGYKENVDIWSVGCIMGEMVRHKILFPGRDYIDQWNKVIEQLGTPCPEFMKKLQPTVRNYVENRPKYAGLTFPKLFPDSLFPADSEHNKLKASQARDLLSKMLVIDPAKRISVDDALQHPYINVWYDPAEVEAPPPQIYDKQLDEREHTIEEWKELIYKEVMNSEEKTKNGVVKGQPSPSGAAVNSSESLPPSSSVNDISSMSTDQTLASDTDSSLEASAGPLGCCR
# METHOD: Inhibition of JNK3-mediated c-Jun phosphorylation in rat INS-1 cells after 3 hrs by ELISA
IC50 reference
Only the number, expressed in µM, is required.

MOLECULE_SMILES: O=C(NCCN1CCOCC1)c1cccc(-n2ncc3cc(Nc4ccccc4Cl)ccc32)c1
QUANTITY_UNIT: µM
IC50: 4.1

Field: next molecule
Query: Consider the molecule O=C(NCCN1CCOCC1)c1ccnc(-n2ncc3cc(Nc4ccccc4Cl)ccc32)c1 and give its recorded IC50.
Response: 5.3

====

# METHOD: Plasma concentration in C57BL6 mouse at 10 mg/kg, ip after 2 hrs
# Type: ADME, organism-based
# Set-up: dose 10 mg/kg, route intraperitoneal
MEASUREMENT_LABEL: concentration at 2 h (nM)
Only the number, expressed in nM, is required.

Field: example entries. Status: answers known.
MOLECULE_SMILES: Cc1cccc(Nc2ccc3c(cnn3-c3cccc(C(=O)NCCN4CCN(C5CCC5)CC4)c3)c2)c1Cl
RECORDED_VALUE: 1200
--
MOLECULE_SMILES: Cc1cccc(NC(=O)c2cccc(-n3ncc4cc(Nc5ccccc5F)ccc43)c2)c1
RECORDED_VALUE: 350
--
MOLECULE_SMILES: O=C(NCCCN1CCOCC1)c1cccc(-n2ncc3cc(Nc4ccccc4Cl)ccc32)c1
RECORDED_VALUE: 280
--
MOLECULE_SMILES: O=C(NCCN1CCOCC1)c1ccnc(-n2ncc3cc(Nc4ccccc4Cl)ccc32)c1
RECORDED_VALUE: 530

Field: next compound
Query: Consider the compound COc1cc(NC(=O)c2cccc(-n3ncc4cc(Nc5ccccc5F)ccc43)c2)cc(OC)c1OC and give its recorded concentration at 2 h.
Response: 790

====

Ratio IC50 reference
# Species: Homo sapiens
# METHOD: Selectivity ratio of IC50 for JNK1 (unknown origin) to IC50 for JNK3 (unknown origin)

Field: example entries. Status: answers known.
MOLECULE_SMILES: O=C(NCCN1CCOCC1)c1cc(-n2ncc3cc(Nc4c(Cl)cccc4Cl)ccc32)ccn1
Ratio IC50: 10

MOLECULE_SMILES: COc1cc(NC(=O)c2cccc(-n3ncc4cc(Nc5ccccc5C)ccc43)c2)cc(OC)c1OC
Ratio IC50: 5

MOLECULE_SMILES: Cc1cccc(Nc2ccc3c(cnn3-c3cccc(C(=O)NCCN4CCN(C5CCC5)CC4)c3)c2)c1Cl
Ratio IC50: 5

Field: next compound
Query: Consider the compound COc1cc(NC(=O)c2cccc(-n3ncc4cc(Nc5ccccc5F)ccc43)c2)cc(OC)c1OC and give its recorded Ratio IC50.
Response: 5

====

bioavailability reference
# METHOD: Oral bioavailability in Sprague-Dawley rat at 2 mg/kg
# Format: ADME, organism-based
# SETTINGS: in vivo
Only the number, expressed in %, is required.

MOLECULE_SMILES: Cc1cccc(Nc2ccc3c(cnn3-c3cccc(C(=O)NCCN4CCN(C5CCC5)CC4)c3)c2)c1Cl
bioavailability (%): 27

MOLECULE_SMILES: COc1cc(NC(=O)c2cccc(-n3ncc4cc(Nc5ccccc5F)ccc43)c2)cc(OC)c1OC
bioavailability (%): 5

MOLECULE_SMILES: O=C(NCCN1CCOCC1)c1ccnc(-n2ncc3cc(Nc4ccccc4Cl)ccc32)c1
bioavailability (%): 5

MOLECULE_SMILES: Cc1cccc(NC(=O)c2cccc(-n3ncc4cc(Nc5ccccc5F)ccc43)c2)c1
bioavailability (%): 7

Field: next compound
Query: Consider the compound CN1CCN(CCNC(=O)c2cccc(-n3ncc4cc(Nc5c(Cl)cccc5Cl)ccc43)c2)CC1 and give its recorded bioavailability.
Response: 20

====

# TESTED_ON: Mitogen-activated protein kinase 10 (Homo sapiens, UniProt P53779)
# Sequence (P53779 whole entry): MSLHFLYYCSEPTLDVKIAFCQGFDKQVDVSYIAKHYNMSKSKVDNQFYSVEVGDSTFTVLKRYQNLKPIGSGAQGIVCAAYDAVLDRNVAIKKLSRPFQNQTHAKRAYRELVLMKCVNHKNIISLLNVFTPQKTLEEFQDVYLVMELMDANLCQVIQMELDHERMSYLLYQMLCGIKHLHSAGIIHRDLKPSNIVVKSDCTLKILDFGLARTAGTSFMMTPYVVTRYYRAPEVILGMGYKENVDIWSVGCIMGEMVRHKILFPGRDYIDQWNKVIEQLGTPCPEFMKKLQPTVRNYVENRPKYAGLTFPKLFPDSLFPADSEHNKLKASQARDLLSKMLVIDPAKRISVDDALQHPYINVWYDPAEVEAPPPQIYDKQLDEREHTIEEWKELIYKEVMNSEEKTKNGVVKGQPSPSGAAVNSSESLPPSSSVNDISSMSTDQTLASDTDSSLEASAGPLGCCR
# METHOD: Inhibition of JNK3 (unknown origin)-mediated ATF2 Thr71 phosphorylation by HTRF assay
pIC50 reference
Convention used: pIC50 is expressed as -log10 of the molar concentration.

Field: example entries. Status: answers known.
MOLECULE_SMILES: Cc1cccc(NC(=O)c2cccc(-n3ncc4cc(Nc5ccccc5F)ccc43)c2)c1
pIC50: 6.92
//
MOLECULE_SMILES: O=C(NCCN1CCOCC1)c1cccc(-n2ncc3cc(Nc4ccccn4)ccc32)c1
pIC50: 5.85
//
MOLECULE_SMILES: O=C(NCCO)c1cccc(-n2ncc3cc(Nc4ccccc4Cl)ccc32)c1
pIC50: 7.46
//
MOLECULE_SMILES: O=C(NCCN1CCOCC1)c1ccnc(-n2ncc3cc(Nc4ccccc4Cl)ccc32)c1
pIC50: 6.92
//
MOLECULE_SMILES: O=C(NCCN1CCOCC1)c1cccc(-n2ncc3cc(Nc4ccccc4Cl)ccc32)n1
pIC50: 6.19
//
MOLECULE_SMILES: Cc1cc(NC(=O)c2cccc(-n3ncc4cc(Nc5ccccc5F)ccc43)c2)ccc1N1CCOCC1
pIC50: 7.42
//
MOLECULE_SMILES: COc1cc(NC(=O)c2cccc(-n3ncc4cc(Nc5ccccc5F)ccc43)c2)cc(OC)c1OC
pIC50: 8.05
//
MOLECULE_SMILES: O=C(NCCN1CCOCC1)c1cccc(-n2ncc3cc(Nc4ccccc4Cl)ccc32)c1
pIC50: 7.27

Query: Consider the compound CN1CCN(CCNC(=O)c2cncc(-n3ncc4cc(Nc5c(Cl)cccc5Cl)ccc43)c2)CC1 and give its recorded pIC50.
Response: 6.96

Query: Consider the compound Cc1cccc(NC(=O)c2cccc(-n3ncc4cc(Nc5ccccc5C)ccc43)c2)c1 and give its recorded pIC50.
Response: 6.60

Query: Consider the compound O=C(NCCCN1CCOCC1)c1cccc(-n2ncc3cc(Nc4ccccc4F)ccc32)c1 and give its recorded pIC50.
Response: 7.66

Query: Consider the compound O=C(NCCN1CCOCC1)c1cccc(-n2ncc3cc(Nc4ccccc4)cnc32)c1 and give its recorded pIC50.
Response: 6.77
